Measured GI50, listed per entry.
System: T47D cells
Test: Cellular growth inhibition assay for T47D cells, CellTiter-Glo
Assay type: cell-based, human
Details: Homo sapiens, 72 hours treatment, CellTiter-Glo 2.0
Procedure: T47D cells were purchased from American Type Cell Culture (ATCC Cat #HTB-133) and then seeded on poly-D-lysine coated, black clear-bottom 384-well plates at 3000/well in 25 μL Dulbecco's Modified Eagle Medium (DMEM) supplemented with 10% w/w Fetal bovine serum (FBS), 0.2 units/mL recombinant human insulin (Gibco Cat #12585014), and 1% w/w Pen-Strep. […] At the end of the treatment duration, cell viability was quantified with CellTiter-Glo 2.0 reagent (Promega Cat #G9243). […]

molecule	result value
Cn1cc(-c2cc(C(C)(C)O)ccc2Oc2ccc(C3CN(C4CCN(c5ccc(C(=O)N[C@H]6CC[C@H](Oc7ccc(C#N)c(Cl)c7)CC6)nn5)CC4)C3)cc2)c2cc[nH]c2c1=O	1500 to 3000 nM
Cn1cc(-c2cc(C(C)(C)O)ccc2Oc2ccc(CC3CN(c4ccc(C(=O)N[C@H]5CC[C@H](Oc6ccc(C#N)c(Cl)c6)CC5)nn4)C3)cc2)c2cc[nH]c2c1=O	< 500 nM
Cn1cc(-c2cc(C(C)(C)O)ccc2Oc2c(F)cc(CCOC3CCN(c4ccc(C(=O)N[C@H]5CC[C@H](Oc6ccc(C#N)c(Cl)c6)CC5)nn4)CC3)cc2F)c2cc[nH]c2c1=O	< 500 nM
Cn1cc(-c2cc(C(C)(C)O)ccc2Oc2cc(F)c(CCOC3CCN(c4ccc(C(=O)N[C@H]5CC[C@H](Oc6ccc(C#N)c(Cl)c6)CC5)nn4)CC3)c(F)c2)c2cc[nH]c2c1=O	1500 to 3000 nM
CCS(=O)(=O)Nc1ccc(Oc2cccc(OCCOCCOCCOC3CCN(c4ccc(C(=O)N[C@H]5CC[C@H](Oc6ccc(C#N)c(Cl)c6)CC5)nn4)CC3)c2)c(-c2cn(C)c(=O)c3[nH]ccc23)c1	< 500 nM
Cn1cc(-c2cc(C(C)(C)O)ccc2Oc2ccc(CCOC3CCN(c4ccc(C(=O)N[C@H]5CC[C@H](Oc6ccc(C#N)c(Cl)c6)CC5)nn4)CC3)cc2)c2cc[nH]c2c1=O	< 500 nM

Task: Given the molecule Cn1cc(-c2cc(N3CCCS3(=O)=O)ccc2Oc2ccc(CCC3CCN(c4ccc(C(=O)NC5CCC(Oc6ccc(C#N)c(Cl)c6)CC5)nn4)CC3)cc2)c2cc[nH]c2c1=O (stereo not shown) , what is its reported GI50?
Result: < 500 nM
